- Test system: RPMI-8226 leukemia
- EXPERIMENT DESCRIPTION: NCI-60 one-dose screen, 48 h (100 = growth as untreated, 0 = no growth, -100 = all killed)
- REPORTED CONDITIONS: 10 µM unless noted
Compounds without any hit were thinned out: in the full panel of roughly 83,000, 20% have a hit.
RECORDED METRIC: growth (%)
Note: unit % is implicit; provide only the numeric part.

CCOC(=O)c1ccc2c(c1)[n+](=O)c(C(C)=O)c(C(F)(F)F)n2[O-]; 8.56
Cc1ccc(C2=Nc3c(N)nc(N)nc3NC(c3cccc(Nc4ccnc5cc(C(F)(F)F)ccc45)c3)C2)cc1 (centres undefined); -19.2

Reported growth for "COc1cccc(NC(=O)c2sc3nc(C)c(C(=O)c4ccccc4)cc3c2N)c1" : what is it?
94.5
